For each of the sequences below, state its Binder (t1/2 ≥ 0.5 h): half-life of peptide-SLA-1*04:01 complex.
Test system: SLA-1*04:01
protocol-text: Peptide-MHC class I complex stability, scintillation proximity assay (SPA)
Parameters: species or system pig
setup-conditions: biotinylated recombinant SLA heavy chain, 125I-β2m, excess unlabeled β2m, read every 40 min, number only if t1/2 ≥ 0.5 h, '-' = not stably binding

Q) What does the record list as Binder (t1/2 ≥ 0.5 h): half-life of peptide-SLA-1*04:01 complex for ALWDTAGQEDY [RhoC1, porcine RhoC-derived 9-11mer peptide] ?
A) 3.9 h

Q) What does the record list as Binder (t1/2 ≥ 0.5 h): half-life of peptide-SLA-1*04:01 complex for LLDITSSLH [IDO67, porcine IDO-derived 9-11mer peptide] ?
A) 0.7 h

Q) What does the record list as Binder (t1/2 ≥ 0.5 h): half-life of peptide-SLA-1*04:01 complex for VQAMVSLRNY [IDO129, porcine IDO-derived 9-11mer peptide] ?
A) 1.2 h

* * *

For each of the sequences below, state its Binder (t1/2 ≥ 0.5 h): half-life of peptide-SLA-3*04:01 complex.
Test system: SLA-3*04:01
protocol-text: Peptide-MHC class I complex stability, scintillation proximity assay (SPA)
Parameters: species or system pig
setup-conditions: biotinylated recombinant SLA heavy chain, 125I-β2m, excess unlabeled β2m, read every 40 min, number only if t1/2 ≥ 0.5 h, '-' = not stably binding
Procedure: The stability of the selected 198 peptides in complex with relevant SLA class I molecules and β2m was determined using a scintillation proximity assay (SPA), as previously described (Harndahl et al., [2011]). […]

Q) What does the record list as Binder (t1/2 ≥ 0.5 h): half-life of peptide-SLA-3*04:01 complex for RNFLHSLES [IDO105, porcine IDO-derived 9-11mer peptide] ?
A) 882 min

Q) What does the record list as Binder (t1/2 ≥ 0.5 h): half-life of peptide-SLA-3*04:01 complex for RNYHLQIVTKY [IDO112, porcine IDO-derived 9-11mer peptide] ?
A) 30 min

Q) What does the record list as Binder (t1/2 ≥ 0.5 h): half-life of peptide-SLA-3*04:01 complex for RNFLHSLESG [IDO106, porcine IDO-derived 9-11mer peptide] ?
A) 30 min

* * *

System: SLA-1*07:02
protocol-text: Peptide-MHC class I complex stability, scintillation proximity assay (SPA)
Parameters: species or system pig
setup-conditions: biotinylated recombinant SLA heavy chain, 125I-β2m, excess unlabeled β2m, read every 40 min, number only if t1/2 ≥ 0.5 h, '-' = not stably binding
readout-name: Binder (t1/2 ≥ 0.5 h): half-life of peptide-SLA-1*07:02 complex
Quick note: give the figure in h, leave out the unit.

Q) // map VLPRNIAIPY [IDO126, porcine IDO-derived 9-11mer peptide] to recorded Binder (t1/2 ≥ 0.5 h): half-life of peptide-SLA-1*07:02 complex (system: SLA-1*07:02)
A) 0.7

Q) // map EVYVPTVFENY [RhoC25, porcine RhoC-derived 9-11mer peptide] to recorded Binder (t1/2 ≥ 0.5 h): half-life of peptide-SLA-1*07:02 complex (system: SLA-1*07:02)
A) 4.4

Q) // map SPMDNSWKIF [IDO120, porcine IDO-derived 9-11mer peptide] to recorded Binder (t1/2 ≥ 0.5 h): half-life of peptide-SLA-1*07:02 complex (system: SLA-1*07:02)
A) 2.6

Q) // map SPMDNSWKI [IDO119, porcine IDO-derived 9-11mer peptide] to recorded Binder (t1/2 ≥ 0.5 h): half-life of peptide-SLA-1*07:02 complex (system: SLA-1*07:02)
A) 1.9

Q) // map RLAHLVLGY [IDO104, porcine IDO-derived 9-11mer peptide] to recorded Binder (t1/2 ≥ 0.5 h): half-life of peptide-SLA-1*07:02 complex (system: SLA-1*07:02)
A) 0.5

* * *

Tested on: SLA-2*05:02
protocol-text: Peptide-MHC class I complex stability, scintillation proximity assay (SPA)
Set-up: species or system pig
setup-conditions: biotinylated recombinant SLA heavy chain, 125I-β2m, excess unlabeled β2m, read every 40 min, number only if t1/2 ≥ 0.5 h, '-' = not stably binding
readout-name: Binder (t1/2 ≥ 0.5 h): half-life of peptide-SLA-2*05:02 complex (min)
Quick note: give the figure in min, leave out the unit.

Q) What does the record list as Binder (t1/2 ≥ 0.5 h): half-life of peptide-SLA-2*05:02 complex for WKIFEEYHI [IDO131, porcine IDO-derived 9-11mer peptide] ?
A) 138

Q) What does the record list as Binder (t1/2 ≥ 0.5 h): half-life of peptide-SLA-2*05:02 complex for TVFENYIADI [RhoC51, porcine RhoC-derived 9-11mer peptide] ?
A) 54

Q) What does the record list as Binder (t1/2 ≥ 0.5 h): half-life of peptide-SLA-2*05:02 complex for MAAIRKKLVI [RhoC40, porcine RhoC-derived 9-11mer peptide] ?
A) 30

Q) What does the record list as Binder (t1/2 ≥ 0.5 h): half-life of peptide-SLA-2*05:02 complex for NSWKIFEEYHI [IDO91, porcine IDO-derived 9-11mer peptide] ?
A) 126

Q) What does the record list as Binder (t1/2 ≥ 0.5 h): half-life of peptide-SLA-2*05:02 complex for HLQIVTKYIVI [IDO39, porcine IDO-derived 9-11mer peptide] ?
A) 36

Q) What does the record list as Binder (t1/2 ≥ 0.5 h): half-life of peptide-SLA-2*05:02 complex for LLVEIAAASAI [IDO68, porcine IDO-derived 9-11mer peptide] ?
A) 30

* * *

System: SLA-1*07:02
protocol-text: Peptide-MHC class I complex stability, scintillation proximity assay (SPA)
Design: species or system pig
setup-conditions: biotinylated recombinant SLA heavy chain, 125I-β2m, excess unlabeled β2m, read every 40 min, number only if t1/2 ≥ 0.5 h, '-' = not stably binding
For each of the sequences below, state its Binder (t1/2 ≥ 0.5 h): half-life of peptide-SLA-1*07:02 complex.
Quick note: give the figure in min, leave out the unit.

Q) What does the record list as Binder (t1/2 ≥ 0.5 h): half-life of peptide-SLA-1*07:02 complex for DPSGPMTYKNM [IDO12, porcine IDO-derived 9-11mer peptide] ?
A) 30

Q) What does the record list as Binder (t1/2 ≥ 0.5 h): half-life of peptide-SLA-1*07:02 complex for HLVLGYITMAY [IDO41, porcine IDO-derived 9-11mer peptide] ?
A) 30

* * *

System: SLA-1*04:01
protocol-text: Peptide-MHC class I complex stability, scintillation proximity assay (SPA)
Parameters: species or system pig
setup-conditions: biotinylated recombinant SLA heavy chain, 125I-β2m, excess unlabeled β2m, read every 40 min, number only if t1/2 ≥ 0.5 h, '-' = not stably binding
For each of the sequences below, state its Binder (t1/2 ≥ 0.5 h): half-life of peptide-SLA-1*04:01 complex.
Quick note: give the figure in h, leave out the unit.

Q) What does the record list as Binder (t1/2 ≥ 0.5 h): half-life of peptide-SLA-1*04:01 complex for DTDVILMCF [RhoC10, porcine RhoC-derived 9-11mer peptide] ?
A) 1.3

Q) What does the record list as Binder (t1/2 ≥ 0.5 h): half-life of peptide-SLA-1*04:01 complex for SAAQSSIFQCF [IDO122, porcine IDO-derived 9-11mer peptide] ?
A) 30.2

* * *

System: SLA-1*04:01
protocol-text: Peptide-MHC class I complex stability, scintillation proximity assay (SPA)
Design: species or system pig
setup-conditions: biotinylated recombinant SLA heavy chain, 125I-β2m, excess unlabeled β2m, read every 40 min, number only if t1/2 ≥ 0.5 h, '-' = not stably binding
readout-name: Binder (t1/2 ≥ 0.5 h): half-life of peptide-SLA-1*04:01 complex

Q) What does the record list as Binder (t1/2 ≥ 0.5 h): half-life of peptide-SLA-1*04:01 complex for SLESGPSVREF [IDO116, porcine IDO-derived 9-11mer peptide] ?
A) 48 min

* * *

For each of the sequences below, state its Binder (t1/2 ≥ 0.5 h): half-life of peptide-SLA-1*04:01 complex.
System: SLA-1*04:01
protocol-text: Peptide-MHC class I complex stability, scintillation proximity assay (SPA)
Parameters: species or system pig
setup-conditions: biotinylated recombinant SLA heavy chain, 125I-β2m, excess unlabeled β2m, read every 40 min, number only if t1/2 ≥ 0.5 h, '-' = not stably binding
Quick note: give the figure in min, leave out the unit.

Q) What does the record list as Binder (t1/2 ≥ 0.5 h): half-life of peptide-SLA-1*04:01 complex for RTYMPPAHRNF [IDO113, porcine IDO-derived 9-11mer peptide] ?
A) 60

Q) What does the record list as Binder (t1/2 ≥ 0.5 h): half-life of peptide-SLA-1*04:01 complex for EIAAASAIKVI [IDO16, porcine IDO-derived 9-11mer peptide] ?
A) 48

Q) What does the record list as Binder (t1/2 ≥ 0.5 h): half-life of peptide-SLA-1*04:01 complex for KGDALLQETY [IDO48, porcine IDO-derived 9-11mer peptide] ?
A) 42

Q) What does the record list as Binder (t1/2 ≥ 0.5 h): half-life of peptide-SLA-1*04:01 complex for YADCVLANW [IDO133, porcine IDO-derived 9-11mer peptide] ?
A) 324

Q) What does the record list as Binder (t1/2 ≥ 0.5 h): half-life of peptide-SLA-1*04:01 complex for NMDILFSFP [IDO85, porcine IDO-derived 9-11mer peptide] ?
A) 48

Q) What does the record list as Binder (t1/2 ≥ 0.5 h): half-life of peptide-SLA-1*04:01 complex for EVDGKQVELAL [RhoC22, porcine RhoC-derived 9-11mer peptide] ?
A) 36
